assay: VP16 counterscreen qHTS for inhibitors of ROR gamma transcriptional activity; details: Drosophila S2 Gal4-VP16 UAS-luciferase, luminescence, 20 h; series mostly up to 53.6 µM;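 also: Gal4-VP16 expression switched on by copper sulfate through the metallothionein promoter; nearly all actives have a fitted effect of over 50% in size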
The campaign covered roughly 310,000 compounds. About 11,000 (3.5%) were called active. About 8% were inconclusive and are not listed. Calls follow the shape of the dose curve; as a rule, active = well fitted inhibition curve with a large enough effect; inconclusive = small, poorly fitted or top-dose-only effect, or effect the other way; inactive = flat fitted curve, though single readings scatter. This is one part of a sample in which actives are shown more often than they occur.
// allowed return values: Yes for active, No for inactive

Some solved cases for reference:
COMPOUND: O=C(N/N=C/c1ccc([N+](=O)[O-])o1)c1cc([N+](=O)[O-])cc([N+](=O)[O-])c1O
CLASS_LABEL: No

COMPOUND: COC1CC(OC2CC[C@@]3(C=O)C4CC[C@]5(C)C(C6=CC(=O)OC6)CC[C@@]5(O)C4CC[C@]3(O)C2)OC(C)C1O (stereo not given in full)
CLASS_LABEL: No

COMPOUND: CC(C)(Cc1c[nH]c2ccc(Cl)cc12)NCCOc1ccccc1OCC1CC1
CLASS_LABEL: Yes

COMPOUND: CCN(CC)c1nc(C)cc(OP(=S)(OC)OC)n1
CLASS_LABEL: No

Now consider a different compound.
Dear all, I need the recorded test outcome for `c1ccc(N2CC[C@@]3(CCCNC3)C2)nc1` , thank you.
No

====

experiment: VP16 counterscreen qHTS for inhibitors of ROR gamma transcriptional activity; settings: Drosophila S2 Gal4-VP16 UAS-luciferase, luminescence, 20 h; series mostly up to 53.6 µM;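 also: Gal4-VP16 expression switched on by copper sulfate through the metallothionein promoter; nearly all actives have a fitted effect of over 50% in size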
About 11,000 (3.5%) of roughly 310,000 compounds were called active. About 8% were inconclusive and are not listed. The call rests on the fitted dose curve; in most records, active means well fitted inhibition curve with a large enough effect; inconclusive means small, poorly fitted or top-dose-only effect, or effect the other way; inactive means flat fitted curve, though single readings scatter. This excerpt belongs to a sample that is enriched for actives.
// allowed return values: 1 for active, -1 for inactive

Some solved cases for reference:
MOLECULE: c1csc(CN2CCCC3(CCNCC3)C2)n1
CLASS_LABEL: -1
//
MOLECULE: COc1cccc(-c2nc3ccc(N4CCN(C)CC4)cc3[nH]2)c1
CLASS_LABEL: 1
//
MOLECULE: CNC(C)[C@@H](O)c1ccccc1 (some centres not stated)
CLASS_LABEL: -1
//
MOLECULE: c1ccc(CN2CC[C@@]3(CCCNC3)C2)cc1
CLASS_LABEL: -1
//
MOLECULE: Cc1nc2ccccn2c1P(=S)(N1CCCCC1)N1CCCCC1
CLASS_LABEL: 1

Dear all, I need the recorded test outcome for `ClCCBr` , thank you.
-1

Dear all, I need the recorded test outcome for `C[C@H]1C/C=C/[C@@H]2[C@@H]3O[C@]3(C)[C@@H](C)[C@H]3[C@H](Cc4ccccc4)NC(=O)[C@]32OC(=O)O/C=C/[C@](C)(O)C1=O` , thank you.
-1

====

assay: VP16 counterscreen qHTS for inhibitors of ROR gamma transcriptional activity; conditions: Drosophila S2 Gal4-VP16 UAS-luciferase, luminescence, 20 h; series mostly up to 53.6 µM;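 also: Gal4-VP16 expression switched on by copper sulfate through the metallothionein promoter; nearly all actives have a fitted effect of over 50% in size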
In all, about 310,000 compounds went through this assay and about 11,000 (3.5%) were called active. Another 8% or so got no clear call; they are omitted. Calls follow the shape of the dose curve; as a rule, active = well fitted inhibition curve with a large enough effect; inconclusive = small, poorly fitted or top-dose-only effect, or effect the other way; inactive = flat fitted curve, though single readings scatter. Many of the other results were omitted from the sample, so actives are more common in it than they were.
// allowed return values: Y = active, N = inactive

COMPOUND: CC[C@H]1CN2CCc3cc(OC)c(OC)cc3[C@@H]2C[C@@H]1C[C@H]1NCCc2cc(OC)c(OC)cc21
CLASS_LABEL: Y
//
COMPOUND: CCCCCn1c(=O)c(C(=O)NCc2ccccn2)c(O)c2ccccc21
CLASS_LABEL: Y
//
COMPOUND: O=C(Nc1cccc(F)c1)N1CC[C@@]2(CCCN(C(=O)Oc3ccccc3)C2)C1
CLASS_LABEL: N

Dear all, I need the recorded test outcome for `COc1cccc(N2C(=O)NC(=O)/C(=C\c3ccc([N+](=O)[O-])s3)C2=O)c1` , thank you.
N
